Measured values drawn from ChEMBL document CHEMBL3286178 for this set.

Items are presented alongside their recorded pKi.
- assay_overview: Binding affinity to rat brain cell membrane
- Type: cell membranes
pKi: −log10 of the molar value.

molecule: O=C(O[C@@H]1Cc2c(O)cc(O)cc2O[C@@H]1c1cc(O)c(O)c(O)c1)c1cc(O)c(O)c(O)c1 [EPIGALOCATECHIN GALLATE]
pKi: 7.60

molecule: Oc1ccc(/C=C/c2cc(O)cc(O)c2)cc1 [RESVERATROL]
pKi: 6.99

molecule: O=C(O[C@@H]1Cc2c(O)cc(O)cc2O[C@@H]1c1ccc(O)c(O)c1)c1cc(O)c(O)c(O)c1 [EPICATECHIN GALLATE]
pKi: 7.60
